# Test target: Histone deacetylase 1 (Homo sapiens, UniProt Q13547)
# Sequence (Q13547 whole entry): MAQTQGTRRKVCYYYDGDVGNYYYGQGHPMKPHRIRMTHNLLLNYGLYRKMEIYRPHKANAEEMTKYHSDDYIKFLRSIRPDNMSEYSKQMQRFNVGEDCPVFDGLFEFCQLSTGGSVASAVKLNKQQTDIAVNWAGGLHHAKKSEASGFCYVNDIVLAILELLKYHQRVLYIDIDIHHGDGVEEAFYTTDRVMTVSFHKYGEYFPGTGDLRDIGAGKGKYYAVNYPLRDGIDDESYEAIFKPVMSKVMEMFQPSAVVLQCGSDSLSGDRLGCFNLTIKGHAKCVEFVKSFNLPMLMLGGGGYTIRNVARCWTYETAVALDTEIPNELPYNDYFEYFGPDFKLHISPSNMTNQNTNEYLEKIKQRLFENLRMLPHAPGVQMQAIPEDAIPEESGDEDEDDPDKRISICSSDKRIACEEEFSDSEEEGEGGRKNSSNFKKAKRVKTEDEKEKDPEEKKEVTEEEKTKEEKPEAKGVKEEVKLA
# maps each entry to its Ki
Observable: Ki (nM)

Structure string: O=C(NO)c1ccc(OCCNC(=O)c2cc3ccccc3o2)cc1
Measurement unit: nM
Limit qualifier: =
Obs value: 4

Structure string: O=C(NO)c1ccc(OCCNC(=O)c2ccc3ccccc3c2)cc1
Measurement unit: nM
Limit qualifier: =
Obs value: 6

Structure string: CN(C)Cc1c(C(=O)NCCOc2ccc(C(=O)O)cc2)oc2ccccc12
Measurement unit: nM
Limit qualifier: >
Obs value: 50000
